# credit: the supplement of paper PMC10307832

tested on: COR-L23; assay: relative viability (nuclei count vs DMSO), 5 days (fraction); higher = more cells survive; conditions: first compound 0.8 µM
# fulfilled = relative viability below 0.8 (exclusive); not fulfilled = relative viability at/above 0.8

Here are 3 compounds together with their reported answers.
COMPOUND	ASSIGNED_CATEGORY
COc1nc(C)cnc1NS(=O)(=O)c1cccnc1-c1ccc(-c2nnco2)cc1 [Zibotentan] + Nc1nc2[nH]cc(CCc3ccc(C(=O)N[C@@H](CCC(=O)O)C(=O)O)cc3)c2c(=O)[nH]1 [Pemetrexed] (partner 0.2 µM)	fulfilled
COc1nc(C)cnc1NS(=O)(=O)c1cccnc1-c1ccc(-c2nnco2)cc1 [Zibotentan] + Cc1nc(NC(=O)N2CCC[C@H]2C(N)=O)sc1-c1ccnc(C(C)(C)C(F)(F)F)c1 [Alpelisib] (partner 2 µM)	not fulfilled
COc1nc(C)cnc1NS(=O)(=O)c1cccnc1-c1ccc(-c2nnco2)cc1 [Zibotentan] + CS(=O)(=O)CCNCc1ccc(-c2ccc3ncnc(Nc4ccc(OCc5cccc(F)c5)c(Cl)c4)c3c2)o1 [Lapatinib] (partner 2 µM)	not fulfilled

Does the reported relative viability of COc1nc(C)cnc1NS(=O)(=O)c1cccnc1-c1ccc(-c2nnco2)cc1 [Zibotentan] + N=C(N)NC(=N)NCCc1ccccc1 [Phenformin] (partner 250 µM) stay below 0.8?
fulfilled

Does the reported relative viability of O=c1cc(-c2cccc3c2Sc2ccccc2S3)oc(N2CCOCC2)c1 + CS(=O)(=O)N1CCN(Cc2cc3nc(-c4cccc5[nH]ncc45)nc(N4CCOCC4)c3s2)CC1 [Pictilisib] (partner 1 µM) stay below 0.8?
not fulfilled

* * *

// values below are reported relative viability
tested on: NCI-H650; assay: relative viability (nuclei count vs DMSO), 5 days (fraction); higher = more cells survive; conditions: first compound 2.53 µM

COMPOUND	VALUE_MEASURED
COc1nc(C)cnc1NS(=O)(=O)c1cccnc1-c1ccc(-c2nnco2)cc1 [Zibotentan] + C[C@@H](Oc1cc(-c2cnn(C3CCNCC3)c2)cnc1N)c1c(Cl)ccc(F)c1Cl [Crizotinib] (partner 1 µM)	0.792

Could you now look at the following compound, please?
// COc1nc(C)cnc1NS(=O)(=O)c1cccnc1-c1ccc(-c2nnco2)cc1 [Zibotentan] + O=C(c1cc(Cc2n[nH]c(=O)c3ccccc23)ccc1F)N1CCN(C(=O)C2CC2)CC1 [Olaparib] (partner 8 µM) : relative viability value = 0.443

* * *

tested on: LXF-289; assay: relative viability (nuclei count vs DMSO), 5 days (fraction); higher = more cells survive; conditions: first compound 0.8 µM
# label 1 = relative viability below 1 (exclusive); label 0 = relative viability at/above 1

Here are 5 compounds together with their reported answers.
COMPOUND	ASSIGNED_CATEGORY
COc1nc(C)cnc1NS(=O)(=O)c1cccnc1-c1ccc(-c2nnco2)cc1 [Zibotentan] + COc1cc2c(Oc3ccc(NC(=O)C4(C(=O)Nc5ccc(F)cc5)CC4)cc3F)ccnc2cc1OCCCN1CCOCC1 [Foretinib] (partner 0.25 µM)	label 0
O=c1cc(-c2cccc3c2Sc2ccccc2S3)oc(N2CCOCC2)c1 + N=C(N)NC(=N)NCCc1ccccc1 [Phenformin] (partner 250 µM)	label 1
COc1nc(C)cnc1NS(=O)(=O)c1cccnc1-c1ccc(-c2nnco2)cc1 [Zibotentan] + CC(=O)c1c(C)c2cnc(Nc3ccc(N4CCNCC4)cn3)nc2n(C2CCCC2)c1=O [Palbociclib] (partner 0.5 µM)	label 1
O=c1cc(-c2cccc3c2Sc2ccccc2S3)oc(N2CCOCC2)c1 + CC1(C)CCC(c2ccc(Cl)cc2)=C(CN2CCN(c3ccc(C(=O)NS(=O)(=O)c4ccc(N[C@H](CCN5CCOCC5)CSc5ccccc5)c(S(=O)(=O)C(F)(F)F)c4)cc3)CC2)C1 [Navitoclax] (partner 0.5 µM)	label 0
COc1nc(C)cnc1NS(=O)(=O)c1cccnc1-c1ccc(-c2nnco2)cc1 [Zibotentan] + CC(C)C[C@H](NC(=O)[C@H](Cc1ccccc1)NC(=O)c1cnccn1)B(O)O [Bortezomib] (partner 0.002 µM)	label 0

Does the reported relative viability of O=c1cc(-c2cccc3c2Sc2ccccc2S3)oc(N2CCOCC2)c1 + CC(=O)Nc1cccc(-n2c(=O)n(C3CC3)c(=O)c3c(Nc4ccc(I)cc4F)n(C)c(=O)c(C)c32)c1 [Trametinib] (partner 0.02 µM) stay below 1?
label 1
